test: Displacement of [3H]BFI from imidazoline I2 receptor in Sprague-Dawley rat brain membranes after 45 mins by scintillation counting; assay type: cell membranes, Membrane
Reported Ki values for a set of molecules
Number in µM, nothing else.

{"columns": ["CHEMICAL STRUCTURE", "ENDPOINT", "VALUE UNITS", "VALUE"],
 "data": [
  ["Cc1cc2nn(CC3=NCCN3)nc2cc1C.Cl.Cl", "Ki", "µM", 0.233],
  ["Cl.Fc1cccc2cnn(CC3=NCCN3)c12", "Ki", "µM", 0.156],
  ["Cc1cccc2c1cnn2CC1=NCCN1.Cl", "Ki", "µM", 0.116],
  ["COc1cccc2c1cnn2CC1=NCCN1.Cl.Cl", "Ki", "µM", 0.382],
  ["Cl.c1ccc2c(c1)cnn2CC1=NCCN1", "Ki", "µM", 42.2]
]}

In: Query: Ki; subject: "CCc1nc2ccccc2n1CC1=NCCN1.Cl.Cl"
Out: 34.1

In: Query: Ki; subject: "Cc1cccc2cnn(CC3=NCCN3)c12.Cl"
Out: 6.84

In: Query: Ki; subject: "Cc1ccc2c(cnn2CC2=NCCN2)c1.Cl.Cl"
Out: 0.022
